assay: Electrochemical behavior of the compound in acetonitrile assessed as redox potential E2 at 1 mM using Ag/Ag+ electrode by cyclic voltammetry
This section presents molecules with their documented Activity values.

line notation: CCCNC1=C(Cl)C(=O)c2cccnc2C1=O
uom: V
Activity: -1.16

line notation: CCCNC1=C(Cl)C(=O)c2ncccc2C1=O
uom: V
Activity: -1.16

line notation: Cc1ccc2c(n1)C(=O)C(Cl)=C(NCCc1ccccc1)C2=O
uom: V
Activity: -1.3

line notation: CCCCCCCCNC1=C(Cl)C(=O)c2cccnc2C1=O
uom: V
Activity: -1.27

line notation: O=C1C(Cl)=C(Nc2ccccc2)C(=O)c2ncccc21
uom: V
Activity: -1

line notation: COc1ccc(CNC2=C(Cl)C(=O)c3cccnc3C2=O)cc1
uom: V
Activity: -1.24

line notation: Cc1ccc2c(n1)C(=O)C(N1CCCCC1)=C(Cl)C2=O
uom: V
Activity: -1.17

line notation: Cc1ccc2c(n1)C(=O)C(NC(C)(C)C)=C(Cl)C2=O
uom: V
Activity: -1.1

line notation: CCCCCCCCNC1=C(Cl)C(=O)c2nc(C)ccc2C1=O
uom: V
Activity: -1.27

line notation: Cc1ccc2c(n1)C(=O)C(Cl)=C(N(C)C)C2=O
uom: V
Activity: -1.11

line notation: CCCCCCCCNC1=C(Cl)C(=O)c2ncccc2C1=O
uom: V
Activity: -1.26

line notation: CCCCCCCc1ccc(NC2=C(Cl)C(=O)c3ncccc3C2=O)cc1
uom: V
Activity: -1.15

line notation: O=C1C(Nc2ccccc2)=C(Cl)C(=O)c2ncccc21
uom: V
Activity: -1.06

line notation: CCCNC1=C(Cl)C(=O)c2nc(C)ccc2C1=O
uom: V
Activity: -1.17

line notation: Cc1ccc2c(n1)C(=O)C(Cl)=C(Nc1ccccc1)C2=O
uom: V
Activity: -1.05

line notation: COc1ccc(CNC2=C(Cl)C(=O)c3ccc(C)nc3C2=O)cc1
uom: V
Activity: -1.1

line notation: C#CCNC1=C(Cl)C(=O)c2nc(C)ccc2C1=O
uom: V
Activity: -1.05

line notation: CCCNC1=C(Cl)C(=O)c2ccc(C)nc2C1=O
uom: V
Activity: -0.97

line notation: Cc1ccc2c(n1)C(=O)C(Cl)=C(NC(C)(C)C)C2=O
uom: V
Activity: -1.25

line notation: COc1ccc(CNC2=C(Cl)C(=O)c3ncccc3C2=O)cc1
uom: V
Activity: -1.18

line notation: Cc1ccc2c(n1)C(=O)C(N(C)C)=C(Cl)C2=O
uom: V
Activity: -1.13

line notation: C#CCNC1=C(Cl)C(=O)c2ncccc2C1=O
uom: V
Activity: -1.1

line notation: O=C1C(Cl)=C(NCCc2ccccc2)C(=O)c2ncccc21
uom: V
Activity: -1.21

line notation: C#CCNC1=C(Cl)C(=O)c2ccc(C)nc2C1=O
uom: V
Activity: -1.1

line notation: C#CCNC1=C(Cl)C(=O)c2cccnc2C1=O
uom: V
Activity: -1.07

line notation: O=C1C(NCCc2ccccc2)=C(Cl)C(=O)c2ncccc21
uom: V
Activity: -1.15

line notation: Cc1ccc2c(n1)C(=O)C(NCCc1ccccc1)=C(Cl)C2=O
uom: V
Activity: -1.3

line notation: Cc1ccc2c(n1)C(=O)C(Nc1ccccc1)=C(Cl)C2=O
uom: V
Activity: -0.9

line notation: Cc1ccc2c(n1)C(=O)C(Cl)=C(N1CCCCC1)C2=O
uom: V
Activity: -1.13

line notation: CC1=CC(=O)c2ccccc2C1=O
uom: V
Activity: -1.27

line notation: CCCCCCCc1ccc(NC2=C(Cl)C(=O)c3cccnc3C2=O)cc1
uom: V
Activity: -1.08
